Value source: patent US20050064507A1

Below, each of the substances is paired with its reported phosphorylation by PKC zeta value.
Biological target: PKC-zeta (Homo sapiens, UniProt Q05513)
Construct: purchased Calbiochem
Sequence (Q05513 1-592): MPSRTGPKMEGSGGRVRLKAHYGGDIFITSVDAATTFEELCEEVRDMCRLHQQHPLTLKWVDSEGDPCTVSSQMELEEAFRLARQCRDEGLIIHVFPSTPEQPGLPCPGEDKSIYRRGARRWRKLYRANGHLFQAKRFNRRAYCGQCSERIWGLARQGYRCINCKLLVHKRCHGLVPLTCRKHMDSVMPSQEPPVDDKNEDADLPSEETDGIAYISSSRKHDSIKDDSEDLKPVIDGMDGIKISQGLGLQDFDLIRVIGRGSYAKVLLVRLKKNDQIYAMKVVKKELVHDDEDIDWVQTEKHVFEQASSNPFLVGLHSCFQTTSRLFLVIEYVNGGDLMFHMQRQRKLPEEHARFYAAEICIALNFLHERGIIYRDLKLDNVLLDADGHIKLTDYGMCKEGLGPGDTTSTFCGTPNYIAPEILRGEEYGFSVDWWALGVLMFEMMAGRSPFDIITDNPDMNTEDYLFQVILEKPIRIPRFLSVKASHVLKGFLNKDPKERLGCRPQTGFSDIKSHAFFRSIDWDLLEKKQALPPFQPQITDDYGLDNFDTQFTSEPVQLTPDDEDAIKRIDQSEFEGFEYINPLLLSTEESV
Assay: In vitro kinase assay: peptide phosphorylation by PKC-zeta
Format: biochemical
Conditions: peptide concentration 1 uM

// solved cases for phosphorylation by PKC zeta follow
| SUBSTANCE | phosphorylation by PKC zeta |
| --- | --- |
| 135 (KKKFRTPSFLKKSKK) [compound 135] | 11 |
| 145 (ISDFGLAKKLAVGRHSFSRR) [compound 145] | 25 |
| 143 (VRYTPYTISPYNRKGSFRKQ) [compound 143] | 22 |
| 167 (GLPAPGEDKSIYRRGSRRWR) [compound 167] | 5 |
| 162 (KKKFSFKKPFKLSGLSFKRN) [compound 162] | 7 |

In: Give phosphorylation by PKC zeta (PKC-zeta (Homo sapiens, UniProt Q05513)) of the following substance: 158 (VQMTWSYPDEKNKRASVRRR) [compound 158]
Out: 11

In: Give phosphorylation by PKC zeta (PKC-zeta (Homo sapiens, UniProt Q05513)) of the following substance: 166 (MAQIERGEARIQRRISIKKA) [compound 166]
Out: 2

* * *

Below, each of the substances is paired with its reported phosphorylation by PKC epsilon value.
Molecular target: PKC-epsilon (Homo sapiens, UniProt Q02156)
Construct: purchased Calbiochem
Sequence (Q02156 1-737): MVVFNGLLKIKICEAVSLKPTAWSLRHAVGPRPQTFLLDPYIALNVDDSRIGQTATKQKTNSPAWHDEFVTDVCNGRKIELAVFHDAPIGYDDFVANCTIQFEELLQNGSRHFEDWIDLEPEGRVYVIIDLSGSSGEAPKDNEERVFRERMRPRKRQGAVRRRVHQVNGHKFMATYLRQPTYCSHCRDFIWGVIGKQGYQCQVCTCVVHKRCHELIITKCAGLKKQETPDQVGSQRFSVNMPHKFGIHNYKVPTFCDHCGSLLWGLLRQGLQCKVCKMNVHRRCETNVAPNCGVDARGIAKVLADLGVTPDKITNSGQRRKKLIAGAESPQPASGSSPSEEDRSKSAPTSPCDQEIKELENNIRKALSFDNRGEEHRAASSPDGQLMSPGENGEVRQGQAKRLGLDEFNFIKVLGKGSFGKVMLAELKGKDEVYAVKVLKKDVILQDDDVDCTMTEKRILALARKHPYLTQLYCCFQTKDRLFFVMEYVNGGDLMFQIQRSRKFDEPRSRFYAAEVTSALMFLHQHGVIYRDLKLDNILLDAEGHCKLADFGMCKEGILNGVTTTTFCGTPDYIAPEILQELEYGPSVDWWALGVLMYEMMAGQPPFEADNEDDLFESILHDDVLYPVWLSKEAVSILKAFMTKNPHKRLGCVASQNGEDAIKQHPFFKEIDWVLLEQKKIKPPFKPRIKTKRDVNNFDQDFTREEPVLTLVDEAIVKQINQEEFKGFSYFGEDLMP
Assay: In vitro kinase assay: peptide phosphorylation by PKC-epsilon
Assay type: biochemical
Settings: peptide concentration 1 uM

// solved cases for phosphorylation by PKC epsilon follow
| SUBSTANCE | phosphorylation by PKC epsilon |
| --- | --- |
| 147 (RDIRQSPKRGFLRSASLGRR) [compound 147] | 26 |
| 115 (NRKKKRTSFKRKA) [compound 115] | 91 |
| 158 (VQMTWSYPDEKNKRASVRRR) [compound 158] | 11 |
| 127 (SQVQKQRSAGSFKRNSIKKI) [compound 127] | 32 |
| 167 (GLPAPGEDKSIYRRGSRRWR) [compound 167] | 6 |
| 132 (GFLNEPLSSKSQRRKSLKLK) [compound 132] | 47 |
| 130 (EYLERRASRRRAV) [compound 130] | 46 |
| 156 (SAQITIPKDGQKRKKSLRKK) [compound 156] | 18 |
| 120 (AKRRRLSSLRASTSK) [compound 120] | 56 |
| 157 (PSPSNETPKKKKKRFSFKKS) [compound 157] | 12 |

In: Query (substance): 140 (TELEGGFSRQRKRKLSFRRR) [compound 140] ; field requested: phosphorylation by PKC epsilon
Out: 27

In: Query (substance): 150 (VDPFYEMLAARKKRISVKKK) [compound 150] ; field requested: phosphorylation by PKC epsilon
Out: 20

In: Query (substance): 139 (RPTPGDGEKRSRIKKSKKRK) [compound 139] ; field requested: phosphorylation by PKC epsilon
Out: 24

In: Query (substance): 143 (VRYTPYTISPYNRKGSFRKQ) [compound 143] ; field requested: phosphorylation by PKC epsilon
Out: 21

* * *

Below, each of the substances is paired with its reported PKC delta phosphorylation value.
Biological target: PKC-delta (Homo sapiens, UniProt Q05655)
Construct: purchased Calbiochem
Sequence (Q05655 whole entry): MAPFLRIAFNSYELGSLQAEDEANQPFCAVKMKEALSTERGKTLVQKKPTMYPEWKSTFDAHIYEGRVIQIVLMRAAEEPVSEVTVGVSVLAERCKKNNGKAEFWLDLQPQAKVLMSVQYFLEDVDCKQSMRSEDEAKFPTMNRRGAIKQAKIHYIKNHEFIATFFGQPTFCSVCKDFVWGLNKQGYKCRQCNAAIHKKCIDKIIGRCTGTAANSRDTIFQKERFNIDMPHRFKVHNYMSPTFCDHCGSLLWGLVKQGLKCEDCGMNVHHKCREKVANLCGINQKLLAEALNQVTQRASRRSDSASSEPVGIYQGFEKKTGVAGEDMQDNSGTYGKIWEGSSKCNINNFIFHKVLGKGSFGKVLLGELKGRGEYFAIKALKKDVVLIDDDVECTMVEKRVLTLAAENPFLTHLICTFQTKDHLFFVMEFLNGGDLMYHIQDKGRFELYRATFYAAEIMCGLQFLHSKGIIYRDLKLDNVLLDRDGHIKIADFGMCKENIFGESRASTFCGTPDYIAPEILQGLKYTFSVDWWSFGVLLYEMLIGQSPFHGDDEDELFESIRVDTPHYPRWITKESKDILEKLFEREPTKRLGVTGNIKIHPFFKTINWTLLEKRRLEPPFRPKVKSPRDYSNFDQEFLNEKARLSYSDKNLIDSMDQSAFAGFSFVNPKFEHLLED
Assay: In vitro kinase assay: peptide phosphorylation by PKC-delta;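 note: peptide concentration 10 nM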
Format: biochemical
Details: normalized to best substrate
Number only, in %; omit the unit.

// solved cases for PKC delta phosphorylation follow
| SUBSTANCE | NUMBER |
| --- | --- |
| 79 (NRKKKRTSFKRKA) [compound 79] | 66 |
| 94 (KLAVGRHSFSRRSGV) [compound 94] | 12 |
| 108 (KATTKKRTLRKNDRK) [compound 108] | 6 |
| 78 (KFARKSTRRSIRLPE) [compound 78] | 52 |
| 93 (AARKKRISVKKKQEQ) [compound 93] | 35 |

Kindly review the next substance as well.
In: Query (substance): 96 (RGFLRSASLGRRASFHLE) [compound 96] ; field requested: PKC delta phosphorylation
Out: 18

* * *

Below, each of the substances is paired with its reported phosphorylation by PKC alpha value.
Biological target: PKC-alpha (Homo sapiens, UniProt P17252)
Construct: purchased Calbiochem
Assay: In vitro kinase assay: peptide phosphorylation by PKC-alpha
Type: biochemical
Conditions: peptide concentration 10 uM
Give a plain numeric answer without units written out.

// solved cases for phosphorylation by PKC alpha follow
| SUBSTANCE | phosphorylation by PKC alpha |
| --- | --- |
| 126 (KAIKAIEGGQKFARKSTRRS) [compound 126] | 34 |
| 165 (TEEKSKKRKKKHRKNSRKHK) [compound 165] | 10 |

In: Query (substance): 114 (KKKKRASFKRKSSKKG) [compound 114] ; field requested: phosphorylation by PKC alpha
Out: 100

In: Query (substance): 137 (PSKSPSKKKKKFRTPSFLKK) [compound 137] ; field requested: phosphorylation by PKC alpha
Out: 38

In: Query (substance): 150 (VDPFYEMLAARKKRISVKKK) [compound 150] ; field requested: phosphorylation by PKC alpha
Out: 11

In: Query (substance): 160 (PFEVVWYKDKRQLRSSKKYK) [compound 160] ; field requested: phosphorylation by PKC alpha
Out: 7

In: Query (substance): 159 (LYARLARAYRRSQRASFKRA) [compound 159] ; field requested: phosphorylation by PKC alpha
Out: 19

In: Query (substance): 163 (PPRTPGWHQLQPRRVSFRGE) [compound 163] ; field requested: phosphorylation by PKC alpha
Out: 10

In: Query (substance): 167 (GLPAPGEDKSIYRRGSRRWR) [compound 167] ; field requested: phosphorylation by PKC alpha
Out: 7

In: Query (substance): 121 (LRRRSLRRSNSISKSPGP) [compound 121] ; field requested: phosphorylation by PKC alpha
Out: 29

In: Query (substance): 116 (EEGTFRSSIRRLSTRRR) [compound 116] ; field requested: phosphorylation by PKC alpha
Out: 57
